Provide the reported pIC50 of each item.
target: Her2 (Homo sapiens, UniProt P04626); construct: fused on or other part: P00533 (Epidermal growth factor receptor); assay: HER-2 ELISA: EGF receptor-HER2 chimeric receptor assay in whole cells (HER2 kinase); format: cell-based; conditions: Table 5; NIH3T3 cells with EGFR/HER2 chimeric receptor, phosphotyrosine ELISA
Sequence (P04626 676-1255 limits assumed): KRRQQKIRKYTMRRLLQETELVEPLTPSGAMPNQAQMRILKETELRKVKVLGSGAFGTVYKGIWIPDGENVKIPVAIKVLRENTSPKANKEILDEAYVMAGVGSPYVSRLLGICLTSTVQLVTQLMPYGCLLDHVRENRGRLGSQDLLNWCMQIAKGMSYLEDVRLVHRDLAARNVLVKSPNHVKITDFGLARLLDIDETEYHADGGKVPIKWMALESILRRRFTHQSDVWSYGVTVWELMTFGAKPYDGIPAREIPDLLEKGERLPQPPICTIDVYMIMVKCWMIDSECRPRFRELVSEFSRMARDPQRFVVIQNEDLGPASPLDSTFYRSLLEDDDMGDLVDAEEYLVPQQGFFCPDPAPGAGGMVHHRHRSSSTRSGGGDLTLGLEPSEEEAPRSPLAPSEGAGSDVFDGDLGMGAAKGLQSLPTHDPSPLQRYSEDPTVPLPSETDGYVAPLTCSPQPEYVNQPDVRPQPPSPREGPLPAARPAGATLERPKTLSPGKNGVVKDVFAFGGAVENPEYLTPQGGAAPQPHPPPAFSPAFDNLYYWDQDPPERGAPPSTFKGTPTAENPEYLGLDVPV
One number for each entry, as −log10 of the molar value.

Consider the reported pIC50 for these compounds:
[[record]]
compound = "COc1ccccc1-c1ccc2c(c1)NC(=O)C2Cc1[nH]c(C)c(CCCN(C)C)c1C (stereo not shown)"
reading = 4.68

[[record]]
compound = "CC(C)(C)c1cc(CC2C(=O)Nc3ccc(Cl)cc32)cc(Br)c1O (racemic)"
reading = 4.32


Lookup: pIC50 / Her2 (Homo sapiens, UniProt P04626) / O=C(Nc1ccc2c(c1)NC(=O)C2Cc1cc(Cl)cc(Cl)c1O)C1CCCC1 (stereo not shown)
4.30

###

target: Her2 (Homo sapiens); construct: fused on or other part: P00533 (Epidermal growth factor receptor); assay: HER-2 ELISA: EGF receptor-HER2 chimeric receptor assay in whole cells (HER2 kinase); format: cell-based; settings: Table 4; NIH3T3 cells with EGFR/HER2 chimeric receptor, phosphotyrosine ELISA
Outcome Measure: IC50 (µM)
Answers are plain numbers, in µM.

[[record]]
molecule = "Cc1[nH]c(C=C2C(=O)Nc3cc(-c4cccnc4)ccc32)c(C)c1CCCN(C)C [AHI-7]"
reading = 16.8

[[record]]
molecule = "O=C1Nc2cc(-c3ccsc3)ccc2C1=Cc1ccccc1O [AHI-6]"
reading = 57.3

[[record]]
molecule = "O=C1Nc2cc(-c3cccnc3)ccc2C1=Cc1ccccc1O [AHI-2]"
reading = 31.5


Now look at this one.
Lookup: IC50 / Her2 (Homo sapiens) / Cc1[nH]c(C=C2C(=O)Nc3cc(-c4cccs4)ccc32)c(C)c1CCCN(C)C [AHI-8]
71

###

biological target: PDGFR (Homo sapiens); experiment: Biochemical PDGFR assay (ELISA); parameters: expressed in transfected cells; host or cells: NIH 3T3; conditions: Table 7, in vitro kinase activity, read-out: PDGFr biochem IC50
Outcome Measure: IC50

Consider the reported IC50 for these molecules:
[[record]]
molecule = "O=C1Nc2cccc(CCO)c2/C1=C/c1ccccn1"
outcome_measure = "IC50"
reading = "> 100 µM"

[[record]]
molecule = "CC(C)c1cccc(OCCc2cccc3c2CC(=O)N3)c1"
outcome_measure = "IC50"
reading = "> 100 µM"

[[record]]
molecule = "COc1ccc(/C=C2\\C(=O)Nc3cccc(CCO)c32)cc1-c1cccs1"
outcome_measure = "IC50"
reading = "> 100 µM"

[[record]]
molecule = "Cc1ccc(O)c(C=C2C(=O)Nc3cccc(CCO)c32)n1 (racemic)"
outcome_measure = "IC50"
reading = "> 100 µM"

[[record]]
molecule = "O=C1Cc2c(CCOc3cccc(-c4ccccc4)c3)cccc2N1"
outcome_measure = "IC50"
reading = "20.2 µM"

[[record]]
molecule = "CC(C)c1ccccc1OCCc1cccc2c1CC(=O)N2"
outcome_measure = "IC50"
reading = "> 100 µM"

[[record]]
molecule = "O=C1Nc2cccc(CCO)c2/C1=C/c1ccc2[nH]ccc2c1"
outcome_measure = "IC50"
reading = "> 100 µM"

[[record]]
molecule = "Cc1[nH]c(/C=C2\\C(=O)Nc3cccc(CCOc4cccc(C(C)C)c4)c32)c(C)c1CCCN(C)C"
outcome_measure = "IC50"
reading = "49.1 µM"


Parameters: items (list). Returns: IC50 for each item.
1. Cc1[nH]c(/C=C2\C(=O)Nc3cccc(CCOc4ccc(C(C)C)cc4)c32)c(C)c1CCC(=O)O
2. O=C1Nc2cccc(CCO)c2/C1=C\c1ccc(Br)cc1
3. Cc1cccc(/C=C2\C(=O)Nc3cccc(CCO)c32)n1
4. CC(C)NC(=O)OCCc1cccc2c1CC(=O)N2

["97.5 µM", "> 100 µM", "> 100 µM", "70.8 µM"]

###

biological target: PDGFR (Homo sapiens); assay: Biochemical PDGFR assay (ELISA); design: expressed in transfected cells; host or cells: NIH 3T3; details: Table 5, in vitro kinase activity, read-out: PDGFr biochem IC50
Outcome Measure: IC50

Parameters: items (list). Returns: IC50 for each item.
1. CC(C)(C)c1cc(CC2C(=O)Nc3ccc(Cl)cc32)cc(Br)c1O (racemic)
2. Cc1[nH]c(CC2C(=O)Nc3ccccc32)c(C)c1CCCN(C)C (stereo not drawn)
3. COc1cccc(-c2ccc3c(c2)NC(=O)C3Cc2[nH]c(C)c(CCCN(C)C)c2C)c1 (stereo not drawn)
4. Cc1cccc(CC2C(=O)Nc3cccc(CCO)c32)n1 (stereo not drawn)
5. COc1cccc(-c2ccc3c(c2)NC(=O)C3Cc2ccccc2O)c1 (stereo not drawn)
6. O=C1Nc2cc(-c3ccccc3)ccc2C1Cc1cccc(F)c1O (stereo not drawn)
7. COc1c(C(C)C)cc(CC2C(=O)Nc3ccccc32)cc1C(C)C (stereo not drawn)
8. COc1ccc(CC2C(=O)Nc3cc(-c4ccccc4)ccc32)c(O)c1 (stereo not drawn)

1. > 100 µM
2. 0.56 µM
3. 3.42 µM
4. > 100 µM
5. > 100 µM
6. > 100 µM
7. > 100 µM
8. > 100 µM

Lookup: IC50 / PDGFR (Homo sapiens) / CC(C)c1cc(CC2C(=O)Nc3ccc(Cl)cc32)cc(C(C)C)c1OCCN1CCOCC1 (stereo not drawn)
> 100 µM

###

target: PDGFR (Homo sapiens); experiment: PDGF-induced BrdU incorporation assay; format: cell-based; parameters: expressed in transfected cells; host or cells: 3T3; settings: Table 5; 3T3 cells expressing human PDGF-R, PDGF 3.8 nM; read-out: BrdU DNA syn. PDFGr IC50
Outcome Measure: IC50

[[record]]
compound = "Cc1cccc2c1C(Cc1ccc3[nH]ccc3c1)C(=O)N2 (stereo not drawn)"
reading = "> 50 µM"

[[record]]
compound = "Cc1[nH]c(CC2C(=O)Nc3ccccc32)c(C)c1CCCN(C)C (stereo not drawn)"
reading = "3.87 µM"

[[record]]
compound = "COc1ccc(CC2C(=O)Nc3cc(NC(C)=O)ccc32)cc1-c1cccs1 (stereo not drawn)"
reading = "> 50 µM"

[[record]]
compound = "O=C1Nc2ccc(F)cc2C1Cc1ccc(O)c(C2CCCC2)c1 (stereo not drawn)"
reading = "> 50 µM"

[[record]]
compound = "Cc1cccc(CC2C(=O)Nc3cccc(CCO)c32)n1 (stereo not drawn)"
reading = "> 50 µM"

[[record]]
compound = "COc1c(C(C)C)cc(CC2C(=O)Nc3ccccc32)cc1C(C)C (stereo not drawn)"
reading = "> 50 µM"


Parameters: items (list). Returns: IC50 for each item.
1. CC(=O)Nc1ccc2c(c1)NC(=O)C2Cc1ccc(OCCN2CCOCC2)c(C2CCCCC2)c1 (stereo not drawn)
2. O=C1Nc2ccccc2C1Cc1ccc2[nH]ccc2c1 (stereo not drawn)
3. COc1cccc(-c2ccc3c(c2)NC(=O)C3Cc2ccccc2O)c1 (stereo not drawn)
4. Cc1[nH]c(CC2C(=O)Nc3ccc(Cl)cc32)c(C)c1CCCN(C)C (stereo not drawn)
5. COc1ccc(CC2C(=O)Nc3cc(-c4ccccc4)ccc32)c(O)c1 (stereo not drawn)
6. COc1ccccc1-c1ccc2c(c1)NC(=O)C2Cc1[nH]c(C)c(CCCN(C)C)c1C (stereo not drawn)

1: 31.1 µM; 2: > 50 µM; 3: > 50 µM; 4: 0.35 µM; 5: > 50 µM; 6: 8.81 µM

###

biological target: PDGFR (Homo sapiens, UniProt P09619); assay: Biochemical PDGFR assay (ELISA); set-up: expressed in transfected cells; host or cells: NIH 3T3; conditions: Table 4, in vitro kinase activity, read-out: bio PDGFr IC50
Sequence (P09619 33-1106): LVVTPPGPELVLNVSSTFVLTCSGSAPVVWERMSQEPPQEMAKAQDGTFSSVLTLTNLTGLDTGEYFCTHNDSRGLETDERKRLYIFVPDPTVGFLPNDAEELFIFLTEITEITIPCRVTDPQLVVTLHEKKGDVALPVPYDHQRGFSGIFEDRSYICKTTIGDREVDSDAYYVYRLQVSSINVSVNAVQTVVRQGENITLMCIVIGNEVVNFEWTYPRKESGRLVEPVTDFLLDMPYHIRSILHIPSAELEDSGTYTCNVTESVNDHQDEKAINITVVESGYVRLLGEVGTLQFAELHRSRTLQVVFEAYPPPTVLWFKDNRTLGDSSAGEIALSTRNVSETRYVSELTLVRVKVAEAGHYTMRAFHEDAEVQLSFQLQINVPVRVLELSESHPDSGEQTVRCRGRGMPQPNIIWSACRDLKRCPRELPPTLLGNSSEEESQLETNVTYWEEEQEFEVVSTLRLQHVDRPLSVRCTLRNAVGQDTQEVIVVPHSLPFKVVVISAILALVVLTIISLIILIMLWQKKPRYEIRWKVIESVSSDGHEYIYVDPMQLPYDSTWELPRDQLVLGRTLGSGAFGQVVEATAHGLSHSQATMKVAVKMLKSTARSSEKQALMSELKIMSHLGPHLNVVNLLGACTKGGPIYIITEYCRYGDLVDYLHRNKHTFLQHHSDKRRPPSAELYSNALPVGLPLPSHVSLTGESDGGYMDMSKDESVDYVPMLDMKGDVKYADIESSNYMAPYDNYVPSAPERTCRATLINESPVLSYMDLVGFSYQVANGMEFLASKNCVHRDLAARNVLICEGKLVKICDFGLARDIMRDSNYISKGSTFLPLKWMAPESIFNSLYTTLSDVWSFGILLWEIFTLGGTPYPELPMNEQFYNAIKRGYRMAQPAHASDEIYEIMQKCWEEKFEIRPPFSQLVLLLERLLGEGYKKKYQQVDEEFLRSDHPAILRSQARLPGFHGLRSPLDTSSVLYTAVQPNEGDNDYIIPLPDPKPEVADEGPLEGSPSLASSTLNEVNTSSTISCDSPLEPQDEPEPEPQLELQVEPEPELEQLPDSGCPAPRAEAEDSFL
Provide the reported pIC50 of each item.
Give bare numbers, as −log10 of the molar value.

[[record]]
molecule = "Cc1[nH]c(C=C2C(=O)Nc3cc(-c4cccnc4)ccc32)c(C)c1CCCN(C)C [AHI-7]"
reading = 7.70

[[record]]
molecule = "O=C1Nc2cc(-c3ccsc3)ccc2C1=Cc1ccccc1O [AHI-6]"
reading = 4.12

[[record]]
molecule = "Cc1[nH]c(C=C2C(=O)Nc3cc(-c4cccs4)ccc32)c(C)c1CCCN(C)C [AHI-8]"
reading = 6.28


Now look at this one.
// lookup pIC50 for O=C1Nc2cc(-c3cccnc3)ccc2C1=Cc1ccccc1O [AHI-2]
4.30

###

biological target: Her2 (Homo sapiens, UniProt P04626); construct: fused on or other part: P00533 (Epidermal growth factor receptor); experiment: EGF-induced Her2-driven BrdU incorporation; assay type: cell-based; conditions: Table 5; 3T3 cells with EGF-R/Her2 chimeric receptor, EGF 2 nM; read-out: BrdU DNA syn. HER2 IC50
Outcome Measure: IC50 (µM)
Give bare numbers, in µM.

Consider the reported IC50 for these compounds:
[[record]]
compound = "O=C1Nc2cc(-c3ccccc3)ccc2C1Cc1cccc(F)c1O (stereo not drawn)"
reading = 30.9

[[record]]
compound = "COc1c(C(C)C)cc(CC2C(=O)Nc3ccccc32)cc1C(C)C (stereo not drawn)"
reading = 34.1

[[record]]
compound = "COc1ccccc1-c1ccc2c(c1)NC(=O)C2Cc1[nH]c(C)c(CCCN(C)C)c1C (stereo not drawn)"
reading = 29.2


Parameters: items (list). Returns: IC50 for each item.
1. CC(=O)Nc1ccc2c(c1)NC(=O)C2Cc1ccc(OCCN2CCOCC2)c(C2CCCCC2)c1 (stereo not drawn)
2. COc1ccc(CC2C(=O)Nc3cc(NC(C)=O)ccc32)cc1-c1cccs1 (stereo not drawn)
3. COc1ccc(CC2C(=O)Nc3ccc(F)cc32)cc1C1CCCC1 (stereo not drawn)

1. 6.8
2. 27.3
3. 32.7
